experiment: refractive index (Na D-line) (dimensionless); details: 298.15 K; 100 kPa; Liquid; Standard Abbe refractometry
Here, each record is paired with measured refractive index data.
Give the value as a plain number.

These recorded examples may help you get a feel for the data.
CCCC[P+](CCCC)(CCCC)CCCC.O=S(=O)([O-])CC(O)CN1CCOCC1 [tetrabutylphosphonium 2-hydroxy-3-morpholinopropanesulfonate]; 1.49299
CCCC[P+](CCCC)(CCCC)CCCC.O=S(=O)([O-])CC(O)CNC1CCCCC1; 1.49313
C[N+](C)(C)CCO.O=S(=O)([O-])CCN(CCO)CCO; 1.50047
CCCC[P+](CCCC)(CCCC)CCCC.O=S(=O)([O-])CCN(CCO)CCO; 1.49502

Here is another molecule to look at.
Look up refractive index for this molecule: `CCCC[N+](CCCC)(CCCC)CCCC.O=S(=O)([O-])CCN(CCO)CCO`
1.48834

====

settings: 318.15 K; 100 kPa; Liquid; Concentric cylinders viscometry
observable: log10 viscosity (log10 of the value in mPa·s)
Base-10 log of viscosity, unit mPa·s.

Study these solved cases before continuing.
C[N+](C)(C)CCO.O=S(=O)([O-])CC(O)CN1CCOCC1 (stereo not drawn); 4.23
CCCC[N+](CCCC)(CCCC)CCCC.O=S(=O)([O-])CCN(CCO)CCO; 3.88
CCCC[N+](CCCC)(CCCC)CCCC.O=S(=O)([O-])CC(O)CNC1CCCCC1; 4.10
CCCC[P+](CCCC)(CCCC)CCCC.O=S(=O)([O-])CCN(CCO)CCO; 3.34
CCCC[N+](CCCC)(CCCC)CCCC.O=S(=O)([O-])CC(O)CN1CCOCC1 [tetrabutylammonium 2-hydroxy-3-morpholinopropanesulfonate]; 4.03

What value of measured log10 viscosity is listed for `CCCC[P+](CCCC)(CCCC)CCCC.O=S(=O)([O-])CC(O)CNC1CCCCC1` ?
3.21

Would you kindly share the measured log10 viscosity for `C[N+](C)(C)CCO.O=S(=O)([O-])CCN(CCO)CCO` ?
3.61

What value of log10 viscosity has been reported for the following compound? CCCC[P+](CCCC)(CCCC)CCCC.O=S(=O)([O-])CC(O)CN1CCOCC1 [tetrabutylphosphonium 2-hydroxy-3-morpholinopropanesulfonate]
3.11

====

conditions: 343.15 K; 100 kPa; Liquid; Vibrating tube method
observable: mass density (kg/m3)
Write it as a number; the unit kg/m3 goes unstated.

What does the record list as mass density for C[N+](C)(C)CCO.O=S(=O)([O-])CC(O)CNC(CO)(CO)CO (centres undefined) ?
1307.4

Suppose we examine the compound CCCC[P+](CCCC)(CCCC)CCCC.O=S(=O)([O-])CC(O)CN1CCOCC1 [tetrabutylphosphonium 2-hydroxy-3-morpholinopropanesulfonate] ; what mass density value has been reported?
1029.1

What mass density value was documented for this compound, CCCC[N+](CCCC)(CCCC)CCCC.O=S(=O)([O-])CC(O)CN1CCOCC1 [tetrabutylammonium 2-hydroxy-3-morpholinopropanesulfonate] ?
1030.4

Consider the compound C[N+](C)(C)CCO.O=S(=O)([O-])CC(O)CN1CCOCC1 (centres undefined) and give its measured mass density.
1213.5

====

experiment: refractive index (Na D-line) (dimensionless); conditions: 318.15 K; 100 kPa; Liquid; Standard Abbe refractometry
observable: refractive index
Write the value as a bare number.

CCCC[N+](CCCC)(CCCC)CCCC.O=S(=O)([O-])CCN(CCO)CCO; 1.48317
C[N+](C)(C)CCO.O=S(=O)([O-])CCN(CCO)CCO; 1.49602

Looking for the measured refractive index of `CCCC[P+](CCCC)(CCCC)CCCC.O=S(=O)([O-])CCN(CCO)CCO` , can you help?
1.49061

Fill in the blank: the reported refractive index of `CCCC[N+](CCCC)(CCCC)CCCC.O=S(=O)([O-])CC(O)CNC1CCCCC1` is ____.
1.48037

Consider the compound CCCC[P+](CCCC)(CCCC)CCCC.O=S(=O)([O-])CC(O)CN1CCOCC1 [tetrabutylphosphonium 2-hydroxy-3-morpholinopropanesulfonate] and give its measured refractive index.
1.4866

Quick one: refractive index for C[N+](C)(C)CCO.O=S(=O)([O-])CC(O)CN1CCOCC1 (stereo not drawn) ?
1.49531

Fill in: refractive index of `CCCC[P+](CCCC)(CCCC)CCCC.O=S(=O)([O-])CC(O)CNC1CCCCC1` is ___
1.48724

Form field: reported refractive index of CCCC[N+](CCCC)(CCCC)CCCC.O=S(=O)([O-])CC(O)CN1CCOCC1 [tetrabutylammonium 2-hydroxy-3-morpholinopropanesulfonate]
1.48038

====

settings: 348.15 K; 100 kPa; Liquid; Vibrating tube method
observable: mass density (kg/m3)
Provide the reading as a plain figure in kg/m3.

Some entries whose results are on file:
C[N+](C)(C)CCO.O=S(=O)([O-])CC(O)CNC(CO)(CO)CO (centres undefined); 1304.6
CCCC[N+](CCCC)(CCCC)CCCC.O=S(=O)([O-])CCN(CCO)CCO; 1032.8
C[N+](C)(C)CCO.O=S(=O)([O-])CC(O)CN1CCOCC1 (centres undefined); 1211.6
C[N+](C)(C)CCO.O=S(=O)([O-])CCN(CCO)CCO; 1216.8
CCCC[N+](CCCC)(CCCC)CCCC.O=S(=O)([O-])CC(O)CNC1CCCCC1; 997.2
CCCC[P+](CCCC)(CCCC)CCCC.O=S(=O)([O-])CCN(CCO)CCO; 1032.8
CCCC[N+](CCCC)(CCCC)CCCC.O=S(=O)([O-])CC(O)CN1CCOCC1 [tetrabutylammonium 2-hydroxy-3-morpholinopropanesulfonate]; 1027.6
CCCC[P+](CCCC)(CCCC)CCCC.O=S(=O)([O-])CC(O)CNC1CCCCC1; 1000.9

Below: the item to evaluate.
State the recorded mass density for this entry: CCCC[P+](CCCC)(CCCC)CCCC.O=S(=O)([O-])CC(O)CN1CCOCC1 [tetrabutylphosphonium 2-hydroxy-3-morpholinopropanesulfonate]
1026.2

====

settings: 313.15 K; 100 kPa; Liquid; Vibrating tube method
observable: mass density (kg/m3)
Report the figure in kg/m3 without appending any unit label.

Examples with their reported mass density follow.
C[N+](C)(C)CCO.O=S(=O)([O-])CC(O)CN1CCOCC1 (stereo not drawn); 1232
CCCC[P+](CCCC)(CCCC)CCCC.O=S(=O)([O-])CC(O)CNC1CCCCC1; 1022.1

Entry under review: `C[N+](C)(C)CCO.O=S(=O)([O-])CCN(CCO)CCO` . Reported mass density?
1236.1

Name the recorded mass density for `CCCC[P+](CCCC)(CCCC)CCCC.O=S(=O)([O-])CCN(CCO)CCO` .
1052.4

====

assay: refractive index (Na D-line) (dimensionless); conditions: 343.15 K; 100 kPa; Liquid; Standard Abbe refractometry
observable: refractive index
The reply should be a number, written without any unit.

Known results for compounds:
CCCC[P+](CCCC)(CCCC)CCCC.O=S(=O)([O-])CCN(CCO)CCO; 1.48287
C[N+](C)(C)CCO.O=S(=O)([O-])CC(O)CN1CCOCC1 (stereo not drawn); 1.48831

Okay, now this compound:
Give the measured refractive index of C[N+](C)(C)CCO.O=S(=O)([O-])CC(O)CNC(CO)(CO)CO (stereo not drawn) .
1.50552

====

conditions: 353.15 K; 100 kPa; Liquid; Concentric cylinders viscometry
observable: viscosity (mPa·s)
# value in mPa·s; strip the unit string

Example entries and their recorded answers appear below.
C[N+](C)(C)CCO.O=S(=O)([O-])CC(O)CNC(CO)(CO)CO (centres undefined); 6385.4
C[N+](C)(C)CCO.O=S(=O)([O-])CCN(CCO)CCO; 512.7
CCCC[P+](CCCC)(CCCC)CCCC.O=S(=O)([O-])CCN(CCO)CCO; 214.5

Turning to the following molecule.
// query viscosity value for entry CCCC[P+](CCCC)(CCCC)CCCC.O=S(=O)([O-])CC(O)CN1CCOCC1 [tetrabutylphosphonium 2-hydroxy-3-morpholinopropanesulfonate]
152.3

====

conditions: 313.15 K; 100 kPa; Liquid; Vibrating tube method
± gives the expanded uncertainty stated by the source.
observable: mass density

CCCC[N+](CCCC)(CCCC)CCCC.O=S(=O)([O-])CC(O)CNC1CCCCC1; 1017.3 ± 2 kg/m3
CCCC[N+](CCCC)(CCCC)CCCC.O=S(=O)([O-])CC(O)CN1CCOCC1 [tetrabutylammonium 2-hydroxy-3-morpholinopropanesulfonate]; 1048.2 ± 1 kg/m3

Would you mind telling me what mass density value was observed for CCCC[P+](CCCC)(CCCC)CCCC.O=S(=O)([O-])CC(O)CN1CCOCC1 [tetrabutylphosphonium 2-hydroxy-3-morpholinopropanesulfonate] ?
1047.5 ± 1 kg/m3

Entry `CCCC[N+](CCCC)(CCCC)CCCC.O=S(=O)([O-])CCN(CCO)CCO` has what mass density?
1052.4 ± 1 kg/m3
